Listing: Morningglory plant response rating of selected compounds
- System: morningglory
- procedure_text: Test A postemergence
- Type: in vivo, Ipomoea spp.
- recorded_conditions: 125 g ai/ha, 0 to 100 scale where 0 is no effect and 100 is complete control
quantity_measured: Morningglory plant response rating

[[record]]
mol = "COC(=O)c1cccc(Oc2ncc(Cl)cn2)c1-n1cc(Br)cn1"
result = 90

[[record]]
mol = "Fc1cnc(Oc2ccccc2-n2cc(C(F)F)cn2)nc1"
result = 80

[[record]]
mol = "O=Cc1cccc(Oc2ncc(Br)cn2)c1-n1cc(Cl)cn1"
result = 0

[[record]]
mol = "FC(F)c1cccc(Oc2ncc(Cl)cn2)c1-n1cc(C(F)(F)F)cn1"
result = 60

[[record]]
mol = "O=Cc1cccc(Oc2ncc(Cl)cn2)c1-n1cc(I)cn1"
result = 0

[[record]]
mol = "O=Cc1cccc(Oc2ncc(Br)cn2)c1-n1cc(Br)cn1"
result = 0

[[record]]
mol = "COc1cnc(Oc2ccccc2-n2cccn2)nc1"
result = 0

[[record]]
mol = "O=Cc1cccc(Oc2ncc(I)cn2)c1-n1cc(Br)cn1"
result = 80

[[record]]
mol = "FC(F)c1cnn(-c2c(Cl)cccc2Oc2ncc(Cl)cn2)c1"
result = 80


Data provenance: patent US9695155B2
